Recorded values, source patent US20110105389A1.

Biological target: GHS-R1a receptor (HEK293 cells expressing GHS-R1a receptor) (Homo sapiens, UniProt Q92847)
Construct: host or cells: HEK293
Sequence (Q92847 whole entry): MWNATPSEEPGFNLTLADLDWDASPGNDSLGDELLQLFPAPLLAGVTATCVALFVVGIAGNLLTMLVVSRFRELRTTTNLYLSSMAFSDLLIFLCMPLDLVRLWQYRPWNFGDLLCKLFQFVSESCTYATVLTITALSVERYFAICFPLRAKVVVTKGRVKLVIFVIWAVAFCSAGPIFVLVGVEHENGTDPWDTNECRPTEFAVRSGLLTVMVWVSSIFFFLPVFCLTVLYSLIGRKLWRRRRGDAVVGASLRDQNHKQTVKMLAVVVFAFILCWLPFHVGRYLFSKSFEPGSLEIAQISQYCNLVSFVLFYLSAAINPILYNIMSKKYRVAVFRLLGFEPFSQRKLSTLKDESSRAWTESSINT
Assay: Fluorescence functional assay (ghrelin receptor), Method B2, agonist and antagonist mode
Assay type: cell-based
Conditions: functional activity as an antagonist at the ghrelin receptor, Methods B2 and B3
quantity_kind: Antagonist Activity

{"molecule": "CCC(C)[C@@H]1NCCOc2ccccc2/C=C/CNC(=O)[C@@H](Cc2ccccc2)NC(=O)[C@H](C(C)O)N(C)C1=O (stereo partly drawn) [Compound 1318]", "quantity_kind": "Antagonist Activity", "recorded_value": "C (C = 10-100 nM)"}
{"molecule": "CC(O)[C@H]1C(=O)N[C@H](Cc2c[nH]c3ccccc23)C(=O)N[C@H](C)C#Cc2ccccc2OCCN[C@@H](C2(C)CC2)C(=O)N1C (stereo partly drawn) [Compound 1713]", "quantity_kind": "Antagonist Activity", "recorded_value": "B (B = 1-10 nM)"}
{"molecule": "CCC(C)[C@@H]1NCCOc2ccccc2CC[C@@H](C)NC(=O)[C@@H](Cc2ccccc2)NC(=O)[C@H](C(C)O)N(C)C1=O (stereo partly drawn) [Compound 1358]", "quantity_kind": "Antagonist Activity", "recorded_value": "C (C = 10-100 nM)"}
{"molecule": "CC[C@@H]1NCC2CCc3cccc(c3O2)CCCNC(=O)[C@@H](Cc2ccccc2)NC(=O)[C@H](C(C)O)N(C)C1=O (stereo partly drawn) [Compound 1780]", "quantity_kind": "Antagonist Activity", "recorded_value": "B (B = 1-10 nM)"}
{"molecule": "CC(O)[C@H]1C(=O)N[C@H](Cc2ccc(Cl)cc2)C(=O)NC/C=C/c2ccccc2OCCN[C@@H](C2(C)CC2)C(=O)N1C (stereo partly drawn) [Compound 1729]", "quantity_kind": "Antagonist Activity", "recorded_value": "B (B = 1-10 nM)"}
{"molecule": "CC1CCc2ccccc2OCCNC(C(C)C)C(=O)N(C)C(C(C)O)C(=O)NC(Cc2ccccc2O)C(=O)N1 (stereo not drawn) [Compound 1401]", "quantity_kind": "Antagonist Activity", "recorded_value": "B (B = 1-10 nM)"}
{"molecule": "CC1CCc2ccccc2OCCNC(C(C)C)C(=O)N(C)C(C(C)O)C(=O)NC(Cc2c[nH]c3ccc(F)cc23)C(=O)N1 (stereo not drawn) [Compound 1801]", "quantity_kind": "Antagonist Activity", "recorded_value": "B (B = 1-10 nM)"}
{"molecule": "CC(C)[C@@H]1NCCOc2ccccc2CC[C@@H](C)NC(=O)[C@@H](Cc2cccc(O)c2)NC(=O)[C@H](C(C)O)N(C)C1=O (stereo partly drawn) [Compound 1352]", "quantity_kind": "Antagonist Activity", "recorded_value": "C (C = 10-100 nM)"}
{"molecule": "CC(C)[C@@H]1NCCOc2ccccc2CC[C@@H](C)NC(=O)[C@@H](Cc2cccnc2)NC(=O)[C@H](C(C)O)N(C)C1=O (stereo partly drawn) [Compound 1384]", "quantity_kind": "Antagonist Activity", "recorded_value": "C (C = 10-100 nM)"}
{"molecule": "CC(C)[C@@H]1NCCOc2ccccc2CC[C@@H](C)NC(=O)[C@@H](Cc2ccc(O)c(Cl)c2)NC(=O)[C@H](C(C)O)N(C)C1=O (stereo partly drawn) [Compound 1383]", "quantity_kind": "Antagonist Activity", "recorded_value": "B (B = 1-10 nM)"}
